Each record here notes measured apparent KD of MS2 coat protein.
system: MS2 coat protein; experiment: apparent KD of MS2 coat protein; designed switch direction (-1 OFF switch, 1 ON switch): 1; higher = weaker reporter binding; conditions: input ligand: microRNA oligo, concentration not stated
In your response, put the unit directly after the numeric value.

Example cases with answers are listed next.
{"columns": ["sequence_content", "apparent KD of MS2 coat protein"],
 "data": [
  ["GCUACCAAUGAAGCCUACAUGAGGAUCACCCAUGUAUGUAGGCAGGAUAUCGAUUGCAAAGCGAUCGAGAAGGGCUUAGGUAGC [Mat - Same State NG 3 - JL Mod - D91] (Eterna round: R96, puzzle: Same State NG 3)", "79.6 nM"],
  ["AGCUAGUACCGAGGAUAUACAUACAUGAGGAUCACCCAUGUAUACAUGAAUAAAUGAGACUACAUGUAGAAGGCGGUACUAGCA [Mat - Same State NG 2 - JL mod - D47] (Eterna round: R96, puzzle: Same State NG 2)", "48.8 nM"],
  ["GUGGCCUAGGCACAGGAUAUGUUGCUCGUAACAUGAGGAUCACCCAUGUGCCUAUGAGAUUUAAUGCAGAAGGGUGCACGCCACG [Edbeso] (Eterna round: R96, puzzle: Same State 2)", "123 nM"]
]}

Then there is this sequence:
Report apparent KD of MS2 coat protein for AUAAAACAUGAGGAUCACCCAUGUAGACACGAUGGAGGAUAUACUAGAUCGAAAGAUCUAGUAGAAGGCCGACGUA [Mat - Same State 1 - JL mod - D95] (Eterna round: R96, puzzle: Same State 1) please.
15.6 nM

---

test system: MS2 coat protein; assay: apparent KD of MS2 coat protein; designed switch direction (-1 OFF switch, 1 ON switch): 1; higher = weaker reporter binding; details: input ligand: none
quantity_kind: apparent KD of MS2 coat protein (nM)
# unit: nM | format: bare number

{"columns": ["sequence_content", "value_unit", "apparent KD of MS2 coat protein"],
 "data": [
  ["UUUAUACAUGAGGAUCACCCAUGUCAACAAAGUCGAGGAUAUGGGCAUAUUAUCUUAUUUCCAGAAGGCGAAUUCU [salish99_ss1_r3_090] (Eterna round: R96, puzzle: Same State 1)", "nM", 378],
  ["GUUACAUGAGGAUCACCCAUGUAUGUGUGGGAGUAAGUGUCUUAGGAUAUCUAGUAUUUAAUGUAAGAGAAGGAAGAUUGUUGU [JMF's solution 64] (Eterna round: R96, puzzle: Same State NG 3)", "nM", 96.1]
]}

Next item in the queue.
Need apparent KD of MS2 coat protein, item GUGGCCUAGGCACAGGAUAUGUUGCUCGUAACAUGAGGAUCACCCAUGUGCCUAUGAGAUUUAAUGCAGAAGGGUGCACGCCACG [Edbeso] (Eterna round: R96, puzzle: Same State 2)
139

---

test system: K4 kissing-loop RNA reporter; assay: apparent KD of K4 kissing-loop reporter; higher = weaker reporter binding; conditions: Eterna round: R107; input ligand: theophylline 20 uM
# apparent KD of K4 kissing-loop reporter per record follows
The reply should contain only the number, in nM.

Use these answered entries as a reference point.
{"columns": ["sequence_content", "value_unit", "measurement"],
 "data": [
  ["UUCUACGAGUGAUGUUCGUAGUGUAUUCGCUAGGAUAUCGUUUUUUCGAGAAGGAGUGAUGAAGUGAUACGAAAGUAUCGCUUCU [FMN A 14]", "nM", 411],
  ["CGUCACACUUGAUGGUUAUCCAAUGAUGAUACCAGCCGUCGAGAUGGCCCUUGGCAGCAUGUGGUACAGUGAUGUUGUACAUUGG [theeternabot_sameState_KL_Theo_A_30]", "nM", 352]
]}

We now examine a further sequence.
GET /values?readout=apparent KD of K4 kissing-loop reporter&item= `GGGAGCAAAGCUCCCGGAUGCUAUAGUCAGGAGGAUAUCUGGAAACAGAGAAGGCCUAAGCCAGUGAUGUUGGCUAUAAGCAUCC`
629

---

apparent KD of MS2 coat protein values for the sequences below.
tested on: MS2 coat protein; experiment: apparent KD of MS2 coat protein; designed switch direction (-1 OFF switch, 1 ON switch): 1; higher = weaker reporter binding; conditions: Eterna round: R95; input ligand: microRNA oligo, concentration not stated
Kindly provide the numeric value in nM only, without the unit symbol.

So what's the measured apparent KD of MS2 coat protein for this one? AGUCCAGCCUGAGCUGGACAAAAGCAUGUACAUGAGGAUCACCCAUGUUCAUGUACAAGCUUUUUGCUCGUCUUCAA [salish99_208a_r3_097x] (puzzle: Sensor for hsa-mir-208a)
13.7

---

tested on: MS2 coat protein; assay: apparent KD of MS2 coat protein; higher = weaker reporter binding; settings: Eterna round: R107; input ligand: theophylline 20 uM
quantity_kind: apparent KD of MS2 coat protein (µM)
Your answer should be a plain number; it is taken to be in µM.

{"columns": ["sequence_content", "apparent KD of MS2 coat protein [µM]"],
 "data": [
  ["AAAUAAACCUCGGCCGCCACUCGCCAUGAGGAUCACCCAUGUAACAUGAGGAUCACCCAUGUACAGAGGACCGGGAGGUCCUAGU [Same State Tryptophan B GF 13]", 0.0689]
]}

For the record GCAUGUUGGUGGUUUCUGCGAAGGCGGAAUCGAGGACCGGUACGGCCGCCACUCGGCGACAUGAGGAUCACCCAUGUGGUUAGGA [Exclusion - Tryptophan A (Freestyle 9)] , what value of apparent KD of MS2 coat protein is listed for MS2 coat protein?
0.221

Which apparent KD of MS2 coat protein is reported with MS2 coat protein for this entry: AAAAGUAGGUCCAAUAAAACUACAUGUGAAGGAGCGCGCGAAAGCGCAGGUAGGUCGCACAUGAGGAUCACCCAUGUCCUACAAA [MAT - Exclusion Arginine A - Mod of Eli - D6] ?
0.0772

---

system: K4 kissing-loop RNA reporter; test: apparent KD of K4 kissing-loop reporter; higher = weaker reporter binding; conditions: Eterna round: R107; input ligand: tryptophan 2.4 mM;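 also: bound reporter read as fluorescence of individual clusters on recovered sequencing chips by microscopy, with normalized cluster intensities fitted with a binding model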
Binned apparent KD of K4 kissing-loop reporter; ranges: bottom end = under 200 nM, midrange = from 200 nM up to 400 nM, top end = 400 nM and over

Examples with answers:
{"columns": ["sequence_content", "category"],
 "data": [
  ["UUGUUUGGUUGAGAGGUUGGGCGAGAUGAUACCAGUAUAGAAGAGUACCCUUGGCAGCAUAGGAGAGAUAUAGUGAUGUUGUAUG [SSTheophA.T]", "midrange"],
  ["AGGGACGAUAGCGAUACCAGAGGUCGCAAAUUCGCGCCGUUUUUUAGGAAGUGAUGUUUUCUCCCUUGGCAGCGCCCUUAGAGUU [theeternabot_exclusion_KL_Theo_B_47]", "top end"],
  ["AAGGGCUAGGCGGCCGCCACUGGUCGUGUACACAUACGAGCCAGUGAUGUUGGUAUUGUGUGCGGCAGGACCGGGCCUAGCCGAA [Exclusion - Tryptophan B (Freestyle 25)]", "midrange"]
]}

// return the class label for GGGAGUAGUGCGGCCGCCACUGAGAAAGAAGAAGAAUAUAGUGAUGUUAUAUAGGAAGGGAAGAAUAGGACCGGGCAUUAGAUUU [SSTRyptB.Z]
midrange

Sort into band: AGGCACGAGCAAGGAUAUCGAGUAGAGUGAUGUUCUGCCUGGGUUGGCGCGGAAGGGCCUUCCCAGCGAGAAGGUGCUCGUGCCU [#2 Same State - FMN A Attempt #10 (HarryS)]
top end

# classify by apparent KD of K4 kissing-loop reporter band: CAUACGCAUGGAGGAUAUGAGAUUUCUCAUAUUAUUGCUUAUUCUCAGUGAUGUUGGGAUUUAAGCUCAGAAGGCCAUGUGUAUG [Ex FMN B 10]
bottom end

Hi, small favor: classify UUACUGAGUGAUGUUUGGAAAUAUCCUAGGCAGGAUAUGCGGAAACGCAGAAGGGCCACCUUCUAGUGAAGGAAACUUCGCUAUU [Ex FMN A 4] by its apparent KD of K4 kissing-loop reporter when you get a moment.
midrange

Please let me know in which category the item CGUCUAUAGCAGGAUACCAGUACCCAUUAUGUACGUUUAUAGUAGAGUGAUGUUCUAAAGUACCCUUGGCAGCUUCCUGUGACCC [#24 K4 Theophylline B Exclusion] belongs.
bottom end

For this sequence, which bin applies? `GCACGUACCCGAAGGAGCGUGCAAGAAUCGUAGUGAUGUUACGGAGAGUGUCACGCCGUCGCACAGGUAGGUCGCGGGUACGUGC`
bottom end

Category of CGGGUACGUCAAGGAUAUAGGCAUGACGUAGUGCAGUGAUGUUGCUCGAGUCUCUUCAACUGAGGACUAGAAGGUGAUCGUAACA [theeternabot_sameState_KL_FMN_B_15] , please.
midrange

Please indicate the class for UUAAUAUUGUCGGCCGCCACUGUUUAGUAUUUUGUAUAAUCUAUUUCAAAGUGAUGUUUUGAUUCCAGGACCGGGACAUUUGAUA [JR_Nu_ExcTryptoB_Sub031] based on its apparent KD of K4 kissing-loop reporter.
midrange

Hello team, could you let me know which band the following sequence falls into: GUAUAUCGAACUGAUACCAGAGAAUAUAGCAGUGAUGUUGCAUAUAUGAAUAAGACUCGACUCCCUUGGCAGCGGGAAGAUAUAC [On purpose 2]
bottom end

Data provenance: the supplement of paper PMC9170038
